read-out: CYP2C9 (gene 1559); experiment: LTEA_HepaRG_CYP2C9: Life Technologies and Expression Analysis (LTEA) Assay for CYP2C9 using HepaRG (AID 2283484); conditions: mRNA level, 48 h; actives raise or lower the signal
Activity calls are given as the source filed them. Rule for the calls: active = hit-call score of the fitted dose curve at least 0.9, where 1 is the maximum; inactive = score below 0.9.
Possible outcomes: active, inactive

                                    molecule  answer_label
 0           CCCCOCN(C(=O)CCl)c1c(CC)cccc1CC      inactive
 1      COC(=O)NC(=S)Nc1ccccc1NC(=S)NC(=O)OC      inactive
 2                         N#Cc1c(Cl)cccc1Cl      inactive
 3         N#Cc1c[nH]cc1-c1cccc2c1OC(F)(F)O2        active
 4  COC(=O)N(C(=O)N1CO[C@@]2(C(=O)OC)Cc3cc(Cl)ccc3C2=N1)c1ccc(OC(F)(F)F)cc1        active
 5  CCCCC(O)(Cn1cncn1)c1ccc(Cl)cc1Cl (stereo not drawn)        active
 6  CCCC(=NOCC)C1=C(O)CC(CC(C)SCC)CC1=O (stereo not drawn)      inactive
 7               Clc1nc(Cl)nc(Nc2ccccc2Cl)n1      inactive
 8                   Cc1cc(C)nc(Nc2ccccc2)n1      inactive
 9                    CNC(=O)Oc1cccc2ccccc12      inactive
10              O=C(O)c1c(Cl)ccc2cc(Cl)cnc12      inactive
11          CCOP(=S)(OCC)Oc1nc(Cl)n(C(C)C)n1      inactive
12                      COc1cc(Cl)c(OC)cc1Cl      inactive

###

read-out: solute carrier (SLC22A1), SLC22A1 (gene 6580); test: LTEA_HepaRG_SLC22A1: Life Technologies and Expression Analysis (LTEA) Assay for solute carrier (SLC22A1) using HepaRG (AID 2283524); details: mRNA level, 48 h; actives raise or lower the signal
Activity calls are given as the source filed them. How the source made its calls: active means hit-call score of the fitted dose curve at least 0.9, where 1 is the maximum; inactive means score below 0.9.
Classes used: active, inactive

>>> df
                                    compound  answer_label
 0  COc1cc(OC)nc(NC(=O)NS(=O)(=O)c2ncccc2OCC(F)(F)F)n1      inactive
 1                   CCOc1nc(C(Cl)(Cl)Cl)ns1        active
 2  CS(=O)(=O)c1ccc(C(=O)C2C(=O)CCCC2=O)c([N+](=O)[O-])c1      inactive
 3  CC(C)(C)C(=O)C(Oc1ccc(Cl)cc1)n1cncn1 (stereo unspecified)      inactive
 4             CC(C)N1C(=O)c2ccccc2NS1(=O)=O      inactive
 5    CC(C)Oc1cccc(NC(=O)c2ccccc2C(F)(F)F)c1      inactive
 6  CCN(CC)C(=O)C(C)Oc1cccc2ccccc12 (stereo unspecified)        active
 7         N#Cc1c[nH]cc1-c1cccc2c1OC(F)(F)O2        active
 8  COC(=O)N(C(=O)N1CO[C@@]2(C(=O)OC)Cc3cc(Cl)ccc3C2=N1)c1ccc(OC(F)(F)F)cc1        active
 9                    CNC(=O)Oc1cccc2ccccc12      inactive
10  C=CCOC(=O)C(C)(C)OC(=O)c1cc(-n2c(=O)cc(C(F)(F)F)n(C)c2=O)ccc1Cl      inactive
11  CCCCC(O)(Cn1cncn1)c1ccc(Cl)cc1Cl (stereo unspecified)        active
12              O=c1n(Cl)c(=O)n(Cl)c(=O)n1Cl      inactive
13        COc1ccc(-c2ccccc2)cc1NNC(=O)OC(C)C      inactive
14            Cc1nc(N(C)C)nc(OC(=O)N(C)C)c1C      inactive
15  CO/N=C(/C1=NOCCO1)c1ccccc1Oc1ncnc(Oc2ccccc2Cl)c1F        active
16  CC1(C)C(C(=O)OC(C#N)c2cccc(Oc3ccccc3)c2)C1(C)C (stereo unspecified)      inactive
17      Cc1ccc(N=CN(C)C=Nc2ccc(C)cc2C)c(C)c1      inactive
18                         CCSC(=O)N1CCCCCC1      inactive
19  CCOc1nc(F)cc2nc(S(=O)(=O)Nc3c(Cl)cccc3Cl)nn12        active
20  Cc1cnc(C2=NC(C)(C(C)C)C(=O)N2)c(C(=O)O)c1 (stereo unspecified)      inactive
21  CC1(C)CCC(=Cc2ccc(Cl)cc2)C1(O)Cn1cncn1 (stereo unspecified)      inactive
22                         N#Cc1c(Cl)cccc1Cl      inactive
23                CC(C)Nc1nc(Cl)nc(NC(C)C)n1      inactive
24  OC(c1ccc(Cl)cc1)(c1ccc(Cl)cc1)C(Cl)(Cl)Cl        active
25  CCCCC(C#N)(Cn1cncn1)c1ccc(Cl)cc1 (stereo unspecified)      inactive

###

read-out: Collagen III, COL3A1 (gene 1281); assay: BSK_hDFCGF_CollagenIII: BioMAP Diversity Plus: hDFCGF Assay for Collagen III Biomarker Activity (AID 2283056); details: primary human foreskin fibroblasts; actives raise or lower the signal
Calls of active or inactive are those of the source. Rule for the calls: active = hit-call score of the fitted dose curve at least 0.9, where 1 is the maximum; inactive = score below 0.9.
Possible outcomes: True for active, False for inactive

                                    compound  answer_label
 0  COCc1cnc(C2=NC(C)(C(C)C)C(=O)N2)c(C(=O)O)c1 (stereo not drawn)         False
 1  CCOC(=O)C(C)OC(=O)c1cc(Oc2ccc(C(F)(F)F)cc2Cl)ccc1[N+](=O)[O-] (stereo not drawn)          True
 2                                    CN=C=S         False
 3  CCN(CC)C(=O)C(C)Oc1cccc2ccccc12 (stereo not drawn)          True
 4  COCC(C)N(C(=O)CCl)c1c(C)csc1C (stereo not drawn)         False
 5             COP(=S)(OC)SCn1nnc2ccccc2c1=O         False
 6          CCOP(=S)(OCC)Oc1nc(Cl)n(C(C)C)n1         False
 7     CC(C)N1C(=O)N(c2ccccc2)CSC1=NC(C)(C)C          True
 8                      COc1cc(Cl)c(OC)cc1Cl         False
 9                Nc1cnn(-c2ccccc2)c(=O)c1Cl         False
10  OC(c1ccc(Cl)cc1)(c1ccc(Cl)cc1)C(Cl)(Cl)Cl          True
11               Nc1c(Cl)c(Cl)nc(C(=O)O)c1Cl         False
12  CCCN(CC)CC1COC2(CCC(C(C)(C)C)CC2)O1 (stereo not drawn)          True

###

Read-out: Fatty Acid-Binding Protein 1 (FABP1), FABP1 (gene 2168)
Test: LTEA_HepaRG_FABP1: Life Technologies and Expression Analysis (LTEA) Assay for Fatty Acid-Binding Protein 1 (FABP1) using HepaRG (AID 2283494)
Details: mRNA level, 48 h; actives raise or lower the signal
Method: LTEA_HepaRG is a cell based, multiplexed-readout assay that uses HepaRG, a human liver cell line, with measurements taken at 48 hours after chemical dosing on a 96-well plate.LTEA_HepaRG_FABP1 is one of 102 assay component(s) measured in the LTEA HepaRG cell culture assay. It is a marker of Steatosis.Data from the assay component LTEA_HepaRG_FABP1 was analyzed into 1 endpoint. […]
Calls of active or inactive are those of the source. How the source made its calls: active means hit-call score of the fitted dose curve at least 0.9, where 1 is the maximum; inactive means score below 0.9.
Recorded Endpoint: AC50

>>> df
                                    molecule  recorded_endpoint    value_observed
 0  CC1(C)CCC(=Cc2ccc(Cl)cc2)C1(O)Cn1cncn1 (configuration not stated)               AC50  4.41 µM (active)
 1              Nc1c(Cl)c(F)nc(OCC(=O)O)c1Cl               AC50          inactive
 2  Cc1cnc(C2=NC(C)(C(C)C)C(=O)N2)c(C(=O)O)c1 (configuration not stated)               AC50          inactive
 3  CC1(C)C(C(=O)OC(C#N)c2cccc(Oc3ccccc3)c2)C1(C)C (configuration not stated)               AC50          inactive
 4           CCCCOCN(C(=O)CCl)c1c(CC)cccc1CC               AC50          inactive
 5              COC(=O)NS(=O)(=O)c1ccc(N)cc1               AC50          inactive
 6  C=C(C)CN(CC)c1c([N+](=O)[O-])cc(C(F)(F)F)cc1[N+](=O)[O-]               AC50    50 µM (active)
 7                   Cc1cc(C)nc(Nc2ccccc2)n1               AC50          inactive
 8  COC(=O)c1c(C(F)F)nc(C(F)(F)F)c(C2=NCCS2)c1CC(C)C               AC50          inactive
 9  COCC(C)N(C(=O)CCl)c1c(C)csc1C (configuration not stated)               AC50    50 µM (active)
10  CCC(C)n1c(=O)[nH]c(C)c(Br)c1=O (configuration not stated)               AC50  24.6 µM (active)
11                         N#Cc1c(Cl)cccc1Cl               AC50          inactive
